# Target Or Test System: HLA-A*24:02
# Run Description: IEDB peptide-MHC binding, purified MHC/direct/fluorescence; filed as Kd, often an IC50 or EC50 that approximates it; bounds were set here for any values at or beyond the usual limits of such assays
# Run Conditions: source organism: Escherichia coli O157:H7
pKd: −log10 of the molar value.
Readout Name: pKd

Problem: What does the data say about its pKd? Entry: LPPERRQPF
Solution: ≤ 4.70

---

# Target Or Test System: HLA-B*27:05
# Run Description: IEDB peptide-MHC binding, purified MHC/direct/fluorescence; filed as Kd, often an IC50 or EC50 that approximates it; bounds were set here for any values at or beyond the usual limits of such assays
# Run Conditions: source organism: Brucella abortus
Readout Name: Kd

Problem: Fill in: Kd of LTDAFHGYH is ___
Solution: ≥ 20 µM

Problem: And the next one, LSDDSGLMV ?
Solution: ≥ 20 µM

---

# Target Or Test System: HLA-A*23:01
# Run Description: IEDB peptide-MHC binding, purified MHC/competitive/fluorescence; filed as Kd, often an IC50 or EC50 that approximates it; bounds were set here for any values at or beyond the usual limits of such assays
# Run Conditions: source organism: Rickettsia bellii OSU 85-389
Readout Name: Kd

Problem: # value lookup — system HLA-A*23:01, readout Kd, item EDFEIFYNL
Solution: ≥ 5 µM

---

# Target Or Test System: HLA-A*11:01
# Run Description: IEDB peptide-MHC binding, purified MHC/competitive/radioactivity; filed as Kd, often an IC50 or EC50 that approximates it; bounds were set here for any values at or beyond the usual limits of such assays
# Run Conditions: source organism: Vaccinia virus Copenhagen
Readout Name: pKd
Would you please state pKd, meaning minus log10 of the concentration in mol/L, as a bare number?

Problem: Any idea what its pKd is? The sequence is RVIWMDAYK
Solution: 9.10

---

# Target Or Test System: HLA-A*03:01
# Run Description: IEDB peptide-MHC binding, purified MHC/competitive/fluorescence; filed as Kd, often an IC50 or EC50 that approximates it; bounds were set here for any values at or beyond the usual limits of such assays
# Run Conditions: source organism: Escherichia coli K-12
Readout Name: Kd

Problem: May I ask what Kd has been recorded for QLAFFVAGK ?
Solution: 12.8 nM

---

# Target Or Test System: HLA-A*02:01
# Run Description: IEDB peptide-MHC binding, cellular MHC/competitive/fluorescence; bounds were set here for any values at or beyond the usual limits of such assays
# Run Conditions: source organism: Human immunodeficiency virus 1
Readout Name: IC50 (µM)
Value expressed in µM; do not type the unit.

Problem: Given the entry YMDDLYVGSD , what IC50 was observed with HLA-A*02:01?
Solution: 8

---

# Target Or Test System: HLA-A*69:01
# Run Description: IEDB peptide-MHC binding, purified MHC/direct/fluorescence; filed as Kd, often an IC50 or EC50 that approximates it; bounds were set here for any values at or beyond the usual limits of such assays
# Run Conditions: source organism: Aggregatibacter actinomycetemcomitans
Readout Name: Kd

Problem: Find the recorded Kd belonging to TTRAWFDKK and report it.
Solution: ≥ 20 µM

---

# Target Or Test System: HLA-A*11:01
# Run Description: IEDB peptide-MHC binding, purified MHC/direct/fluorescence; filed as Kd, often an IC50 or EC50 that approximates it; bounds were set here for any values at or beyond the usual limits of such assays
# Run Conditions: source organism: Haemophilus influenzae
Readout Name: Kd (µM)
Reply with just the number (in µM).

Problem: State the recorded Kd for this entry: RLFFIDWEY
Solution: 5.27
